target: DNA polymerase beta (Homo sapiens)
experiment: qHTS Assay for Inhibitors of DNA Polymerase Beta; further: potency means the concentration at half of the fitted maximal effect
experimentalSetup: Pol beta primer extension/strand displacement, fluorescence kinetic; series mostly up to 114 µM
About 4,500 (1.3%) of roughly 340,000 compounds were called active. Roughly 5% stayed inconclusive and do not appear here. Only a selection was taken, and actives are over-represented in it overall.
reportedEndpoint: Potency

Field: example entries. Status: answers known.
> print(dat)
                             smilesnotation       measurement
1  CC(C)(C)c1ccc(C(=O)N2CCC(c3nc(-c4ccc(S(=O)(=O)N5CCCC5)cc4)no3)CC2)cc1          inactive
2  COc1ccc(-c2cc(=O)c3c(O)cc(O[C@@H]4O[C@H](CO[C@@H]5O[C@@H](C)[C@H](O)[C@@H](O)[C@H]5O)[C@@H](O)[C@H](O)[C@H]4O)cc3o2)cc1O  25.1 µM (active)
3  Cc1cccc(C)c1Nc1nnc(SCC(=O)Nc2sccc2C#N)s1          inactive
4              Cc1csc(SCC(=O)Nc2sccc2C#N)n1    20 µM (active)

Attention now turns to another entry.
Sample CCCn1c2ccccc2c2cnn(CC(=O)N(C)c3ccccc3CC)c(=O)c21 ; Potency observed: inactive

###

target: DNA polymerase beta (Homo sapiens) (UniProt P06746)
experiment: qHTS Assay for Inhibitors of DNA Polymerase Beta
experimentalSetup: Pol beta primer extension/strand displacement, fluorescence kinetic; series mostly up to 114 µM
About 4,500 (1.3%) of roughly 340,000 compounds were called active. Roughly 5% stayed inconclusive and do not appear here. Calls come from the whole dose curve; as a rule, active = well fitted inhibition curve with a large enough effect; inconclusive = small, poorly fitted or top-dose-only effect, or another doubt; inactive = no such curve, though single readings can be large or run the other way. This is one part of a sample in which actives are shown more often than they occur.
Answer with one of the outcomes active, inactive

> print(dat)
                             smilesnotation  classname
1  Cc1ccccc1CNC(=O)CCCn1nc(C)c2sc3ccccc3c2c1=O   inactive
2  O=C(N/N=C/c1ccccn1)c1ccc(S(=O)(=O)N2CCCCCC2)cc1     active
3  O=C(Nc1ccc(S(=O)(=O)N2CCCCC2)cc1)c1cnccn1   inactive
4  CCOc1cc(-c2nnc(SCC(=O)NC3CCCC3)nc2-c2ccc(OC)c(OCC)c2)ccc1OC   inactive
5  O=C(N/N=C/c1ccccn1)c1cccc(NC(=O)c2ccc(Cl)cc2)c1   inactive

Short answer needed: outcome of this test for CC(C)c1ccc(Cn2c(COc3ccccc3)nc3ccccc32)cc1 ? inactive

###

target: DNA polymerase beta (Homo sapiens) (UniProt P06746)
experiment: qHTS Assay for Inhibitors of DNA Polymerase Beta
experimentalSetup: Pol beta primer extension/strand displacement, fluorescence kinetic; series mostly up to 114 µM
Out of some 340,000 compounds screened, about 4,500 (1.3%) were called active. About 5% were inconclusive and are not listed. Calls come from the whole dose curve; as a rule, active = well fitted inhibition curve with a large enough effect; inconclusive = small, poorly fitted or top-dose-only effect, or another doubt; inactive = no such curve, though single readings can be large or run the other way. Only a selection was taken, and actives are over-represented in it overall.
Answer with one of the outcomes yes (1) = active, no (0) = inactive

> print(dat)
                                   compound  classname
1  O=C(CSc1ccc(-c2ccco2)nn1)NCc1ccc2c(c1)OCO2    yes (1)
2  CC(Nc1ccc(-c2nc(-c3ccco3)no2)cc1[N+](=O)[O-])c1ccccc1 (configuration not stated)    yes (1)
3  N#Cc1ccsc1NC(=O)CN1CCN(S(=O)(=O)c2cc(Cl)ccc2Cl)CC1     no (0)
4  COc1cc(OC)cc(-c2nnc(SCC(=O)Nc3ccc(C(=O)O)cc3)s2)c1     no (0)
5  COc1cccc(CNC(=O)CCc2nc(-c3ccc(C)cc3)no2)c1     no (0)
6  O=C1NN(c2ccccc2)C(=O)/C1=C/c1ccc(-c2cccc(C(=O)O)c2)o1    yes (1)

Short answer needed: outcome of this test for COc1ccc(S(=O)(=O)NCc2cccn2Cc2cccc(C)c2)cc1Cl ? no (0)

Short answer needed: outcome of this test for CCOc1ccc(NC(=O)c2c(NC(=O)Cc3ccccc3)sc3c2CCCCC3)cc1 ? no (0)

Short answer needed: outcome of this test for COCCCNC(=S)N1CCCC(c2nc3cc(C)c(C)cc3[nH]2)C1 (configuration not stated) ? yes (1)

Short answer needed: outcome of this test for O=C(CN1CCN(S(=O)(=O)c2cc(Cl)ccc2Cl)CC1)c1ccc(O)c(O)c1 ? yes (1)

Short answer needed: outcome of this test for CCCCCn1c(=O)[nH]c2cc(C(=O)NCCN(C)CCCC)ccc2c1=O ? no (0)

Short answer needed: outcome of this test for COC(=O)c1ccccc1NC(=O)C1CCN(C(=O)N2CCOc3ccccc32)CC1 ? yes (1)

Short answer needed: outcome of this test for COc1ccc(-c2nc3c(c(SCC(=O)Nc4ccc(C(=O)O)cc4)n2)Cc2ccccc2O3)cc1 ? yes (1)

Short answer needed: outcome of this test for COc1ccc(Cl)cc1S(=O)(=O)N1CCN(CC(=O)C(C)(C)C)CC1 ? no (0)

Short answer needed: outcome of this test for O=c1c(NCc2cccs2)nccn1-c1ccccc1 ? no (0)

Short answer needed: outcome of this test for COC(=O)COc1ccc2c(c1C)O/C(=C\c1ccco1)C2=O ? yes (1)

###

target: DNA polymerase beta (Homo sapiens)
experiment: qHTS Assay for Inhibitors of DNA Polymerase Beta
experimentalSetup: Pol beta primer extension/strand displacement, fluorescence kinetic; series mostly up to 114 µM
About 4,500 (1.3%) of roughly 340,000 compounds were called active. About 5% were inconclusive and are not listed. The call rests on the fitted dose curve; in most records, active means well fitted inhibition curve with a large enough effect; inconclusive means small, poorly fitted or top-dose-only effect, or another doubt; inactive means no such curve, though single readings can be large or run the other way. For the sample, actives were picked, then their nearest neighbours and some compounds at random.
Answer with one of the outcomes active, inactive

Short answer needed: outcome of this test for Cc1ccc(-n2nc3ccc(NC(=O)/C=C/c4ccco4)cc3n2)cc1C ? active

Short answer needed: outcome of this test for Cc1n[nH]c(=O)nc1N/N=C/c1cccs1 ? inactive

Short answer needed: outcome of this test for CCC1=Nc2cc(C(=O)NCC(C)c3ccccc3)ccc2Sc2ccc(C)cc21 (stereo unspecified) ? inactive

Short answer needed: outcome of this test for O=C(COc1ccccc1Cl)Nc1ccc2nc(SCC(=O)N3CCCC3)sc2c1 ? inactive

Short answer needed: outcome of this test for CCn1cc(C(=O)N2CCN(c3cc(C)ccc3C)CC2)c(=O)c2cc(S(=O)(=O)N(C)C3CCCCC3)ccc21 ? inactive

###

target: DNA polymerase beta (Homo sapiens) (UniProt P06746)
experiment: qHTS Assay for Inhibitors of DNA Polymerase Beta
experimentalSetup: Pol beta primer extension/strand displacement, fluorescence kinetic; series mostly up to 114 µM
Among all 340,000 compounds or so, about 4,500 (1.3%) were called active. About 5% were inconclusive and are not listed. Calls come from the whole dose curve; as a rule, active = well fitted inhibition curve with a large enough effect; inconclusive = small, poorly fitted or top-dose-only effect, or another doubt; inactive = no such curve, though single readings can be large or run the other way. The sample as a whole holds a higher share of actives than the screen did.
Answer with one of the outcomes 1 (active), 0 (inactive)

> print(dat)
                                    compound  classname
 1  COc1ccc(/C=N/NC(=O)c2ccc3c(c2)OCCO3)c(OC)c1          0
 2  O=S(=O)(c1ccccc1)c1nc(-c2ccc(Cl)cc2Cl)oc1N1CCCCC1          0
 3  Cc1ccccc1-c1nc(CS(=O)(=O)CC(=O)Nc2cc(Cl)cc(Cl)c2)c(C)o1          0
 4  CCc1nnc(NC(=O)C2CCCN2S(=O)(=O)c2ccccc2)s1 (stereo unspecified)          0
 5  CCCCNC(=O)CSc1nc2n[nH]c(C)c2c(=N)n1-c1cccc(Cl)c1C          0
 6  CCOc1ccc(-n2c(SCC(=O)NCc3ccccc3)nc3n[nH]c(C)c3c2=N)cc1          1
 7  CCN1CCN(CCCNC(=O)c2ccc3c(c2)sc2nc(-c4ccc(OC)cc4)cn23)CC1          0
 8  COc1ccc2oc(C(=O)NCC(Cc3ccccc3)N(C)C)c(C)c2c1 (stereo unspecified)          0
 9  COc1cccc(/C=N/NC(=O)c2[nH]nc3c2CCc2ccccc2-3)c1O          1
10  O=C(c1cnn(-c2ccc(F)cc2)c1-n1cccc1)N1CCN(c2ccc(F)cc2)CC1          0

Short answer needed: outcome of this test for O=C(C1CCC(Cn2c(=O)c3sccc3n(Cc3ccccc3F)c2=O)CC1)N1CCCCC1 (stereo unspecified) ? 0

Short answer needed: outcome of this test for COc1c(O)cc2oc(-c3ccc(O)c(O)c3)cc(=O)c2c1O ? 1

Short answer needed: outcome of this test for CCCCOc1ccc(CN2C(=O)C(=O)c3cc(Br)cc(C)c32)cc1OC ? 0

Short answer needed: outcome of this test for Cc1c(CCC(=O)O)c(=O)oc2c(C)c(OCc3ccccc3Cl)ccc12 ? 1

Short answer needed: outcome of this test for COc1ccc(-c2c(C)c3ccc(O)c(CN4CCN(C)CC4)c3oc2=O)cc1OC ? 0

Short answer needed: outcome of this test for Cc1cccc(N2CCN(C(=O)CCSCc3ccccc3F)CC2)c1C ? 0

###

target: DNA polymerase beta (Homo sapiens)
experiment: qHTS Assay for Inhibitors of DNA Polymerase Beta
experimentalSetup: Pol beta primer extension/strand displacement, fluorescence kinetic; series mostly up to 114 µM
In all, about 340,000 compounds went through this assay and about 4,500 (1.3%) were called active. Not shown: some 5% with an inconclusive outcome. The call rests on the fitted dose curve; in most records, active means well fitted inhibition curve with a large enough effect; inconclusive means small, poorly fitted or top-dose-only effect, or another doubt; inactive means no such curve, though single readings can be large or run the other way. The full list was thinned out, with actives kept by preference.
Answer with one of the outcomes active, inactive

Past entries and their recorded results:
> print(dat)
                                   molecule  classname
1          COc1ccc(NC(=O)C(=O)NCc2ccco2)cc1   inactive
2        CCOc1ccc(NC(=O)c2ncoc2-c2ccco2)cc1   inactive
3    O=C(Cc1c(F)cccc1Cl)Nc1ccc(-n2cnnn2)cc1   inactive
4  CC1CCC2(CC1)N=C(c1ccccc1)C(=O)N2CC(=O)Nc1ccc(F)c(Cl)c1 (stereo unspecified)   inactive
5  CC(C)c1ccc2oc(-c3cc(NC(=O)c4cccs4)ccc3Cl)nc2c1   inactive

Short answer needed: outcome of this test for COCCNC(=O)Nc1ccc2nc(-c3ccco3)c(-c3ccco3)nc2c1 ? active

Short answer needed: outcome of this test for O=C(CSc1nc2ccccc2o1)N/N=C/c1ccccc1C(=O)O ? inactive

Short answer needed: outcome of this test for COc1cccc(-n2cc(C(=O)NCc3cccc(Cl)c3)c3ccccc3c2=O)c1 ? inactive

Cited source for all entries: PubChem BioAssay AID485314
